experimental protocol: observed amide hydrogen exchange rate constant kobs (stretched exponential fit, FD-normalized) (s^-1); higher = faster H/D exchange (less protection)
details: pH 3 (pH read); temperature: 20 °C; D2O: 88%
reported metric: observed amide hydrogen exchange rate constant kobs

record sequence	obs value
YLIPNATQPESK	0.000945
SIEVIENR	0.000822
YPSPFFVFGEK	0.000978
HIYYITGETK	0.00121
EAMEDGEIDGNK	0.0032
LEEDISSSMTNSTAASRPPVTLR	0.00131
TIAPALVSK	0.000597
EVDEQMLNVQNK	0.00132

* * *

experimental protocol: observed amide hydrogen exchange rate constant kobs (stretched exponential fit, FD-normalized) (s^-1); higher = faster H/D exchange (less protection)
details: pH 3 (pH read); temperature: 20 °C; D2O: 88%
reported metric: observed amide hydrogen exchange rate constant kobs

substance	obs value
AFLASPEYVNLPINGNGK	0.000869
VFIGNLNTLVVK	0.000428
VYVGNLGNNGNK	0.00211
EVTPEGLQMVK	0.000799
GYDVIAQAQSGTGK	0.00126
NPDDITQEEYGEFYK	0.00161
AAGVNVEPFWPGLFAK	0.000814
NIPGITLLNVSK	0.000585
IGLFGGAGVGK	0.000762
HALIIYDDLSK	0.00058
DVLFLK	0.000617
ALTVPELTQQVFDAK	0.000761
LAHEVGWK	0.00169
SSTPEEVK	0.00152
GPSSVEDIK	0.00156
LVPVGYGIK	0.000648
SLAGSSGPGASSGTSGDHGELVVR	0.00237
VIHDNFGIVEGLMTTVHAITATQK	0.00116
TSRPENAIIYNNNEDFQVGQAK	0.00112
LILPHVDIQLK	0.000852
AAIDWFDGK	0.00155
VFSGLVSTGLK	0.00112
LFIGGLNTETNEK	0.00144
HLEINPDHSIIETLR	0.00155
FAAYFQQGDMESNGK	0.00182
VNFAMNVGK	0.000903
TVHAGEVGSAEVVK	0.00152
FSHEEIAMATVTALRR	0.000978
LDGLVETPTGYIESLPR	0.000897
IIDVVYNASNNELVR	0.00138
LLDVVHPAAK	0.00126
LLEVEHPAAK	0.00188
TLAQLNPESSLFIIASK	0.00061
FDLMYAK	0.000933
DRPFFPGLVK	0.000625
QVVESAYEVIK	0.000781
STGGAPTFNVTVTK	0.000782
STTTGHLIYK	0.00173
EAILDIITSR	0.0013
GEENLMDAQVK	0.00185
FLVYVANFDEK	0.000821
EQGVLSFWR	0.00106
ATENDIANFFSPLNPIR	0.000823
ISVYYNEATGGK	0.00138
YNQLLR	0.000842
RSELIAK	0.000984
VLITTDLLAR	0.000753
RALEQQVEEMK	0.000806
SDALETLGFLNHYQMK	0.00133
AVLVDLEPGTMDSVR	0.00126
GLSEDTTEETLK	0.003
RVIISAPSADAPMFVMGVNHEK	0.000994
TVALWDLR	0.000702
EGIPPDQQR	0.00171
VLQALEGLK	0.00101
LVQDVANNTNEEAGDGTTTATVLAR	0.00155
LAYINPDLALEEK	0.00137
VAPEEHPVLLTEAPLNPK	0.00104
YYVTIIDAPGHR	0.00127
DEILPTTPISEQK	0.000626
HLEINPDHPIVETLR	0.00133
SLTNDWEDHLAVK	0.00185
EESGKPGAHVTVK	0.00233
VAGQDGSVVQFK	0.00116
NNQITNNQR	0.00134
FNVWDTAGQEK	0.00146
CILQDGR	0.00103
ALELTGLK	0.00115
ALGQNPTNAEVLK	0.000979
LGGSAVISLEGKPL	0.000716
HQEGEIFDTEK	0.0025
VLQATVVAVGSGSK	0.000618
PFLWLAR	0.000665
QQISLATQMVR	0.00147
